Catalogue of MCPA Km values
Experiment: enzyme activity assay at 23° C. with purified enzyme
Format: biochemical
Details: percentage of wild-type RdpA, set at 100%
Protocol: The enzyme activity of MON-HT protein variants with triclopyr, fluroxypyr, MCPA, MCPB, mecoprop, as substrates was determined using the enzyme activity assay conducted at 23° C. with purified enzyme. The activity was recorded as the maximum activity as a percentage of the wild-type RdpA enzyme's activity, which was set at 100%. […] The enzymatic activity with mecoprop as a substrate was reduced for each of the MON-HT1, MON-HT13, MON-HT15, and MON-HT17 variants compared to the wild-type RdpA enzyme. […]
Write it as a number; the unit % goes unstated.

Would you please look over these solved cases?
molecule="MON-HT15: engineered oxygenase protein, amino acid sequence SEQ ID NO:49 (protein) MHAALTPLTNKYRHIDVQPLTGVLGAEITGVDLREPLDDSTWNEILDAFHTYQVIYFPGQAITNEQHIAFSRRFGPVDPVPILKSIEGYPEVQMIRREANESSRYIGDDWHADSTFLDAPPAAVVMRAIEVPEYGGDTGFLSMYSAWETLSPAMQATIEGLNVVHSATKVFGSLYQATNWRFSNTSVKVMDVDAGDRETVHPLVVTHPVTGRRALYCNQIYCQKIQGMTDAESKSLLQFLYEHATQFDFTCRVRWKKDQVLVWDNLCTMHRAVPDYAGKFRYLTRTTVAGDKPSR" property_name="MCPA Km" unit_descriptor=% observed_result=59
molecule="MON-HT17: engineered oxygenase protein, amino acid sequence SEQ ID NO:51 (protein) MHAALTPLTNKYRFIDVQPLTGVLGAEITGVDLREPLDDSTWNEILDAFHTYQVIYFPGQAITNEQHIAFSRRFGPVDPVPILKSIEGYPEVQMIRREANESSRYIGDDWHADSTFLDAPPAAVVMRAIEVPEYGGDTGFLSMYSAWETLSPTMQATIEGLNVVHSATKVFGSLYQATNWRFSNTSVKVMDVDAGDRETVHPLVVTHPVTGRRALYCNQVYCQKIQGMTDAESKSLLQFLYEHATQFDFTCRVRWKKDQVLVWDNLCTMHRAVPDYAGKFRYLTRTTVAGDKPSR" property_name="MCPA Km" unit_descriptor=% observed_result=62

INPUT: Which measured MCPA Km value corresponds to MON-HT1: engineered oxygenase protein, amino acid sequence SEQ ID NO:14 (protein) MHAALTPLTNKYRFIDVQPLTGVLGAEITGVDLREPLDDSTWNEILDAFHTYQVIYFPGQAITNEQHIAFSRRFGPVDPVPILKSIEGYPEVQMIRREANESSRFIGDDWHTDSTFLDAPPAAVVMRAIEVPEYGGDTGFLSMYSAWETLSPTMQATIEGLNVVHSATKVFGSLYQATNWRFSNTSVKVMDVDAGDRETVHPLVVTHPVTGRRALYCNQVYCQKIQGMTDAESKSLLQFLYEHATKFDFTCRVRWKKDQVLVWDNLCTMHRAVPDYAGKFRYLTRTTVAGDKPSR ?
OUTPUT: 21

Data provenance is patent US12723255B2.
